# %Inh listing for each entry below
Test system: PKAC-beta
Construct: gene PRKACB
Settings: concentration: 1 μM, replicates: in singlicate; n = 1;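 further: KINOMEscan kinase panel screen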
READOUT NAME: %Inh (%)

# MOLECULE, READOUT NAME, MEASURED
rows = [
    ("CS(=O)(=O)CCNCc1ccc(-c2ccc3ncnc(Nc4ccc(OCc5ccccc5)c(Cl)c4)c3c2)o1.Cl [GW574783]", "%Inh", 16),
    ("O=c1cc(N2CCOCC2)nc2n(Cc3cccc(Cl)c3)ccn12 [GSK2296823]", "%Inh", 0),
    ("FC(F)(F)c1cc(Nc2nccc(-c3c(-c4ccc(Cl)cc4)nn4ncccc34)n2)ccc1Cl [GW829351]", "%Inh", 0),
    ("CSc1nn2c(=O)cc(N3CCOCC3)nc2n1Cc1cccc(Cl)c1Cl [GSK2347225]", "%Inh", 12),
    ("CCc1nc(-c2cccc(N(C)S(=O)(=O)c3ccccc3)c2)c(-c2ccnc(Nc3ccc(N4CCN(C(C)=O)CC4)nc3)n2)s1 [GSK1645895]", "%Inh", 0),
    ("Cn1cc(-c2ccc3c(c2)CCN3C(=O)Cc2cccc(C(F)(F)F)c2)c2c(N)ncnc21 [GSK2606414]", "%Inh", 6),
    ("Cn1ccc2ncnc(Nc3ccc(Oc4cccc(Cl)c4)c(Cl)c3)c21", "%Inh", 0),
    ("Clc1cc(Nc2ncnc3cc[nH]c23)ccc1OCc1ccccn1", "%Inh", 0),
    ("COc1cc2c(Nc3cccc(NC(=O)c4ccccc4)c3)ncnc2cc1OCCCN1CCOCC1 [GSK223810]", "%Inh", 0),
    ("Cl.c1ccc(Cn2ccc3cc(Nc4ncnc5ccccc45)ccc32)cc1 [GW275568]", "%Inh", 0),
    ("CSc1ccc(NC2=C(c3ccccc3Cl)C(=O)NC2=O)cc1 [SB-342411]", "%Inh", 0),
    ("FC(F)(F)c1ccc(-c2nn3ncccc3c2-c2ccnc(Nc3cccc(C(F)(F)F)c3)n2)cc1 [GW828205]", "%Inh", 24),
    ("CC(C)(C)c1ccc(-n2cnc3c(N)ncnc32)cc1 [SKF-97263]", "%Inh", 2),
    ("C[C@@H]1CCN(C(=O)CO)C[C@@H]1N(C)c1ncnc2[nH]ccc12", "%Inh", 93.7),
    ("CS(=O)(=O)CCNCc1nc(-c2ccc3ncnc(Nc4ccc(OCc5cccc(F)c5)c(Cl)c4)c3c2)cs1.Cl [GW583340]", "%Inh", 0),
]

###

Test system: STK16
Settings: concentration: 1 μM, replicates: in singlicate; n = 1
# %Inh listing for each entry below

# SUBSTANCE SMILES, TARGET OR SYSTEM, UNIT SPEC, %Inh
rows = [
    ("Nc1nccc2scc(-c3ccc4c(c3)CCN4C(=O)Cc3cc(F)ccc3F)c12", "STK16", "%", 11),
    ("Oc1ccc2ncnc(Nc3ccc(OCc4ccccc4)cc3)c2c1", "STK16", "%", 3),
    ("FC(F)(F)c1ccc(-c2nn3ncccc3c2-c2ccnc(Nc3cccc(C(F)(F)F)c3)n2)cc1", "STK16", "%", 14),
    ("O=C(CCO)NCCn1ccc2ncnc(Nc3ccc(Oc4cccc(C(F)(F)F)c4)c(Cl)c3)c21", "STK16", "%", 8),
    ("c1ccc(-c2ccc3c(-c4ccnc(Nc5ccc6c(c5)OCCO6)n4)cnn3n2)cc1", "STK16", "%", 95.8),
]

###

# %Inh listing for each entry below
System: EPHB4
Conditions: concentration: 1 μM, replicates: in singlicate; n = 1

# MOLECULE, UNIT SPEC, %Inh
measured = [
    ("CCc1nc(-c2cccc(C)c2)c(-c2ccnc(NC(=O)c3ccccc3)c2)s1", "%", 37),
    ("Cl.Fc1ccccc1COc1ccc(Nc2ncnc3ccc(-c4nnc(C(F)(F)F)o4)cc23)cc1Cl", "%", 0),
    ("CC(C)(C)OC(=O)NC1CCCN(c2cc(-c3ccc4c(N)n[nH]c4c3)nc(N)n2)C1 (stereo not shown)", "%", 9),
    ("CSc1ccc(NC2=C(c3ccccc3Cl)C(=O)NC2=O)cc1", "%", 3),
]

###

Test system: SYK
Conditions: concentration: 1 μM, replicates: in singlicate; n = 1

# SUBSTANCE SMILES, %Inh
records = [
    ("Cl.Cn1ccc(-c2cccc(Nc3ccnc4cc(-c5nccs5)ccc34)c2)n1", "0%"),
    ("Cc1ccc(O)cc1Nc1cc(C(F)(F)F)nc2ccc(-c3ccncc3)cc12", "8%"),
    ("COC(=O)c1c(-c2ccccc2)c2cc(Cl)ccc2c(=O)n1Cc1ccc(S(C)(=O)=O)cc1", "3%"),
    ("Fc1cccc(COc2ccc(Nc3ncnc4cc[nH]c34)cc2Cl)c1", "32%"),
    ("Clc1cccc(-c2nc(Nc3ccncc3)c3ccccc3n2)c1", "33%"),
]

###

Test system: PLK1
Details: concentration: 1 μM, replicates: in singlicate; n = 1

# COMPOUND, %Inh [%]
data = [
    ("Fc1ccc(Nc2nccc(-c3c(-c4ccc(Cl)cc4)nn4ncccc34)n2)cc1F [GW829058]", 32),
    ("O=C(CCO)NCCn1ccc2ncnc(Nc3ccc(Oc4cccc(C(F)(F)F)c4)c(Cl)c3)c21", 0),
    ("Nc1nccc2scc(-c3ccc4c(c3)CCN4C(=O)Cc3cc(F)ccc3F)c12 [GSK2587663]", 0),
    ("FC(F)(F)c1ccc(-c2cc(-c3c[nH]nc3-c3ccccn3)ccn2)cc1 [GW599550]", 0),
    ("O=C(c1ccc(-c2cc(-c3c[nH]nc3-c3ccccn3)ccn2)cc1)N1CCCC1 [GW792479]", 0),
    ("CC(C)(C)OC(=O)NC1CCCN(c2cc(-c3ccc4c(N)n[nH]c4c3)nc(N)n2)C1 (stereo not shown) [GSK2286096]", 16),
    ("Fc1cccc(COc2ccc(Nc3ncnc4nn5ccccc5c34)cc2Cl)c1 [GW689066]", 0),
]

###

Tested on: PKAC-alpha
Construct: gene PRKACA
Conditions: concentration: 1 μM, replicates: in singlicate; n = 1
READOUT NAME: %Inh

# COMPOUND, MEASURED
records = [
    ("CCc1nc(-c2cccc(N(C)S(=O)(=O)c3ccccc3)c2)c(-c2ccnc(Nc3ccc(N4CCN(C(C)=O)CC4)nc3)n2)s1", "0%"),
    ("O=C(Nc1ccccc1F)NC1CCN(c2ccnc(Nc3ccc(F)cc3)n2)C1 (stereo not drawn)", "0%"),
    ("COc1ccc(Nc2nccc(N3CCC(NC(=O)c4cccc(NC(C)=O)c4)C3)n2)cc1 (stereo not drawn)", "0%"),
    ("Cn1ccc2ncnc(Oc3ccc(NC(=O)Nc4cccnc4)c(Cl)c3)c21", "7%"),
    ("COc1ccc(NC(=O)c2ccc(-c3cc(-c4nnc(C)o4)ccc3C)cc2)cc1", "0%"),
    ("CC(C)(C)c1ccc(-n2cnc3c(N)ncnc32)cc1", "4%"),
    ("Nc1n[nH]c2nnc(-c3ccccc3)cc12", "0%"),
    ("Nc1nc(-c2ccccn2)c(-c2ccnc3ccccc23)s1", "0%"),
    ("Cn1ccc2ncnc(Nc3ccc(Oc4cccc(Cl)c4)c(Cl)c3)c21", "4%"),
    ("Fc1cccc(COc2ccc(Nc3ncnc4sc(-c5ccc[nH]5)cc34)cc2Cl)c1", "0%"),
    ("N#Cc1ccc(Oc2ccc(Nc3ncnc4cc[nH]c34)cc2Cl)cc1", "8%"),
    ("Clc1ccc(-c2cc(-c3c[nH]nc3-c3ccccn3)ccn2)cc1", "0%"),
    ("Cl.Cn1ccc(-c2cccc(Nc3ccnc4cc(-c5nccs5)ccc34)c2)n1", "0%"),
    ("COc1ccc(Nc2nccc(N3CCC(NC(=O)Nc4ccc5c(c4)OCO5)C3)n2)cc1 (stereo not drawn)", "5%"),
    ("Nc1nc(-c2ccc3c(N)n[nH]c3c2)cc(N2CCCCC2)n1", "56%"),
]

###

# %Inh listing for each entry below
Tested on: PLK2
Conditions: concentration: 1 μM, replicates: in singlicate; n = 1

# MOLECULE, %Inh, %
rows = [
    ("N#Cc1ccc(Oc2ccc(Nc3ncnc4cc[nH]c34)cc2Cl)cc1", 5),
    ("COc1ccc(-c2oc3ncnc(N)c3c2-c2ccc(OC)cc2)cc1", 0),
    ("CNc1nccc(-c2c(-c3ccc(F)cc3)ncn2C2CCN(C)CC2)n1", 0),
    ("CCCc1ccc(S(=O)(=O)NC2CCN(c3ccnc(Nc4ccc(OC)cc4)n3)C2)cc1 (centres unmarked)", 0),
    ("Nc1nc(-c2cccnc2)c(-c2ccnc3ccccc23)s1", 0),
    ("OCCOCCn1ccc2ncnc(Nc3ccc(Oc4cccc(Cl)c4)c(Cl)c3)c21", 0),
    ("COc1cc2c(Nc3cccc(NC(=O)c4ccccc4)c3)ncnc2cc1OCCCN1CCOCC1", 3),
    ("Nc1n[nH]c2nnc(-c3ccccc3)cc12", 35),
    ("CS(=O)(=O)CCNCc1nc(-c2ccc3ncnc(Nc4ccc(OCc5cccc(F)c5)c(Cl)c4)c3c2)cs1.Cl", 0),
    ("CCn1c(-c2ccncc2)nc2cnccc21", 37),
    ("Nc1nccc2scc(-c3ccc4c(c3)CCN4C(=O)Cc3cc(F)ccc3F)c12", 0),
    ("Cn1ccc2ncnc(Nc3ccc(Oc4cccc(Cl)c4)c(Cl)c3)c21", 30),
    ("Cl.Cn1ccc(-c2cccc(Nc3ccnc4cc(-c5nccs5)ccc34)c2)n1", 0),
    ("O=C(Nc1ccccc1F)NC1CCN(c2ccnc(Nc3ccc(F)cc3)n2)C1 (centres unmarked)", 0),
]

The values you see were collected from paper PMC5540273.
